- experimentDescription: Mineral oil removal from aluminum coupon, sonication in solvent
- conditionSummary: 23 ° C., sonicated 1 minute
This listing pairs compounds with measured percent oil removal.
The answer is to be given in %; state only the numeric part.

// below: answered compounds
{"columns": ["compound", "propertyLabel", "resultNumber"],
 "data": [
  ["FC(F)(F)C(F)(F)C(F)(F)C(F)(F)C(F)(F)C(F)(F)F [Example C6F14, C6F14, reference compound]", "percent oil removal", 54.9],
  ["FC(F)C(F)(F)C(F)(F)C(F)(F)C(F)(F)C(F)(F)F [Example C6F13H, C6F13H, reference compound]", "percent oil removal", 71.7],
  ["COC(F)(F)C(F)(F)C(F)(F)C(F)(F)F", "percent oil removal", 60.3],
  ["COC1(F)C(F)(F)C(F)(F)C(F)(F)C(F)(F)C1(F)F", "percent oil removal", 74.4]
]}

Switching to the query record.
Recorded result, FC(F)(Cl)C(F)(Cl)Cl [CF2ClCFCl2, reference compound] , percent oil removal: 98.9
